Numbers sourced from patent US20260125382A1.

# maps each entry to its Enzyme degradation CDK2 (% remaining) @ 10 μM
TARGET_OR_TEST_SYSTEM: CDK2 (Homo sapiens, UniProt P24941)
Construct: endogenous in cells; host or cells: MDA-MB-231
PROCEDURE_TEXT: CDK protein degradation activity (Western blotting), CDK2
Format: cell-based
CONDITION_CONTEXT: MDA-MB-231 cells, 10 μM, 16 hours, Western blot

{"COMPOUND": "O=C1CCC(N2C(=O)c3ccc(N4CCC(C(=O)N5CC(N6CCN(c7ccc(Nc8ncnc9c8ncn9[C@H]8C[C@@H](NC(=O)Cc9ccccc9)C8)cc7)CC6)C5)CC4)cc3C2=O)C(=O)N1 (stereo partly drawn)", "RESULT": "30/30/30%"}
{"COMPOUND": "O=C1CCC(N2C(=O)c3cccc(N4CCC(CN5CCC(CNc6ncnc7c6ncn7[C@H]6C[C@@H](NC(=O)Cc7ccccc7)C6)CC5)CC4)c3C2=O)C(=O)N1 (stereo partly drawn)", "RESULT": "30/30/30%"}

Next compound, please.
Would you mind telling me what Enzyme degradation CDK2 (% remaining) @ 10 μM value was observed for "O=C1CC[C@H](N2C(=O)c3ccc(NCC(=O)N4CCC(OCCN5CCN(c6ccc(Nc7ncnc8c7ncn8[C@H]7C[C@@H](NC(=O)Cc8ccccc8)C7)cc6)CC5)CC4)cc3C2=O)C(=O)N1" ?
50/50/50%
